Study system: D-Apt49
Method description: Homogeneous electrochemical competitive binding assay in 20% fetal bovine serum
Assay conditions: 20% fetal bovine serum, 5 µM Fc-L-Tym, 100 µM D-Apt49; read-out: Kd
Method: • Figure 1: Electrochemically competitive assay of the invention. Left-hand column: before the addition of the sample: a first redox signal is measured. Right-hand column: after the addition of a sample containing the target to be detected or measured: a second redox signal is measured. (A) Homogeneous electrochemically competitive assay: the presence of the target disrupts the complex formed between the oligonucleotide ligand and the redox-labeled target. […]
Measurement kind: Kd (µM)
Express the result in µM but write the number alone.

Query :: What value of Kd has been recorded for this entry: NC(=O)[C@@H](N)Cc1ccc(O)cc1 [L-Tym, L-tyrosinamide]
Result :: 11
